Target: PD-L1 (Homo sapiens)
Construct: expressed in transfected cells; host or cells: PC3 cells (human prostate carcinoma), stably transduced
Sequence (Q9NZQ7 19-290): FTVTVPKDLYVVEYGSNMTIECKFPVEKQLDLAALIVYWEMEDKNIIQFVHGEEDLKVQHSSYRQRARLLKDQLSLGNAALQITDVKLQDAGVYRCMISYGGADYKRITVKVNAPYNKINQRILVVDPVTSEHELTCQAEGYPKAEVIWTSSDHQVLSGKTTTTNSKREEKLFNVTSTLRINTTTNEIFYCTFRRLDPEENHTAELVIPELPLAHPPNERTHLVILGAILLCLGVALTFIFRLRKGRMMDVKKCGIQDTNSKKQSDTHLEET
Test: Real-time radioligand binding (LigandTracer) on PC3 PD-L1 cells
Conditions: medium + 2.5% BSA, n = 1
Method: Real-time radioligand binding using the ligand tracer platform was performed, similar to our previously reported tracer candidates. […] For real-time binding to assess kinetics (association rate constant ka and dissociation rate constant kd) and dissociation constant (KD), LigandTracer (Yellow, Ridgeview Instruments AB, Sweden) was employed. […] First, association was determined by incubation with two concentrations (10 and 40 nM, 90 min each) of the ^64Cu-labeled PD-L1 ligands. […]
So basically: ka (association rate constant) at 1000 M/s or higher? That is Met. Lower than 1000 M/s? That is Not met.

- MOLECULE: "Cc1c(COc2cc(OCc3cncc(C#N)c3)c(CN[C@@H](CS(=O)(=O)O)C(=O)NCCS(=O)(=O)O)cc2Cl)cccc1-c1cccc(OCc2cn(CCCN3CCN(C(=O)[C@H](CS(=O)(=O)O)NC(=O)CC[C@H](C(=O)O)N4CCN(CC(=O)O)CCN(CC(=O)O)CC4)CC3)nn2)c1C.[64Cu+2] [[^64Cu]Cu-1]"
  LABEL_VALUE: "Met"
- MOLECULE: "Cc1c(COc2cc(OCc3cncc(S(C)(=O)=O)c3)c(CN[C@@H](CS(=O)(=O)O)C(=O)NCCP(=O)(O)O)cc2Cl)cccc1-c1cccc(OCc2cn(CCCN3CCN(C(=O)[C@H](CP(=O)(O)O)NC(=O)CC[C@H](C(=O)O)N4CCN(CC(=O)O)CCN(CC(=O)O)CC4)CC3)nn2)c1C.[64Cu+2] [[^64Cu]Cu-6]"
  LABEL_VALUE: "Met"
- MOLECULE: "Cc1c(COc2cc(OCc3cncc(S(C)(=O)=O)c3)c(CN[C@@H](CS(=O)(=O)O)C(=O)NCCS(=O)(=O)O)cc2Cl)cccc1-c1cccc(OCc2cn(CCCN3CCN(C(=O)[C@H](CS(=O)(=O)O)NC(=O)CC[C@H](C(=O)O)N4CCN(CC(=O)O)CCN(CC(=O)O)CC4)CC3)nn2)c1C.[64Cu+2] [[^64Cu]Cu-3]"
  LABEL_VALUE: "Met"
- MOLECULE: "Cc1c(COc2cc(OCc3cncc(S(C)(=O)=O)c3)c(CN[C@@H](CS(=O)(=O)O)C(=O)NCCP(=O)(O)O)cc2Cl)cccc1-c1cccc(OCc2cn(CCCN3CCN(C(=O)CC[C@H](C(=O)O)N4CCN(CC(=O)O)CCN(CC(=O)O)CC4)CC3)nn2)c1C.[64Cu+2] [[^64Cu]Cu-4]"
  LABEL_VALUE: "Not met"

Given Cc1c(COc2cc(OCc3cncc(S(C)(=O)=O)c3)c(CN[C@@H](CS(=O)(=O)O)C(=O)NCCP(=O)(O)O)cc2Cl)cccc1-c1cccc(OCc2cn(CCCN3CCN(C(=O)[C@H](CS(=O)(=O)O)NC(=O)CC[C@H](C(=O)O)N4CCN(CC(=O)O)CCN(CC(=O)O)CC4)CC3)nn2)c1C.[64Cu+2] [[^64Cu]Cu-5] , state whether its ka (association rate constant) is at least 1000 M/s. Met

* * *

System: PC3 PD-L1-overexpressing tumor
Test: Small-animal PET, uptake in PD-L1-overexpressing tumor
Settings: 4.5 (4–5) hours p.i., tracer only
Measured SUVmax PC3 PD-L1 overexpressing tumor, listed per entry for reference.
The response must contain the number and no unit.

- COMPOUND: "Cc1c(COc2cc(OCc3cncc(S(C)(=O)=O)c3)c(CN[C@@H](CS(=O)(=O)O)C(=O)NCCP(=O)(O)O)cc2Cl)cccc1-c1cccc(OCc2cn(CCCN3CCN(C(=O)[C@H](CS(=O)(=O)O)NC(=O)CC[C@H](C(=O)O)N4CCN(CC(=O)O)CCN(CC(=O)O)CC4)CC3)nn2)c1C.[64Cu+2] [[^64Cu]Cu-5]"
  SUVmax PC3 PD-L1 overexpressing tumor: 1.75
- COMPOUND: "Cc1c(COc2cc(OCc3cncc(S(C)(=O)=O)c3)c(CN[C@@H](CS(=O)(=O)O)C(=O)NCCP(=O)(O)O)cc2Cl)cccc1-c1cccc(OCc2cn(CCCN3CCN(C(=O)CC[C@H](C(=O)O)N4CCN(CC(=O)O)CCN(CC(=O)O)CC4)CC3)nn2)c1C.[64Cu+2] [[^64Cu]Cu-4]"
  SUVmax PC3 PD-L1 overexpressing tumor: 1.2
- COMPOUND: "Cc1c(COc2cc(OCc3cncc(S(C)(=O)=O)c3)c(CN[C@@H](CS(=O)(=O)O)C(=O)NCCP(=O)(O)O)cc2Cl)cccc1-c1cccc(OCc2cn(CCCN3CCN(C(=O)[C@H](CP(=O)(O)O)NC(=O)CC[C@H](C(=O)O)N4CCN(CC(=O)O)CCN(CC(=O)O)CC4)CC3)nn2)c1C.[64Cu+2] [[^64Cu]Cu-6]"
  SUVmax PC3 PD-L1 overexpressing tumor: 1.55
- COMPOUND: "Cc1c(COc2cc(OCc3cncc(S(C)(=O)=O)c3)c(CN[C@@H](CS(=O)(=O)O)C(=O)NCCS(=O)(=O)O)cc2Cl)cccc1-c1cccc(OCc2cn(CCCN3CCN(C(=O)[C@H](CS(=O)(=O)O)NC(=O)CC[C@H](C(=O)O)N4CCN(CC(=O)O)CCN(CC(=O)O)CC4)CC3)nn2)c1C.[64Cu+2] [[^64Cu]Cu-3]"
  SUVmax PC3 PD-L1 overexpressing tumor: 2.6

Now look at this entry.
Report SUVmax PC3 PD-L1 overexpressing tumor, nothing else, for this compound: Cc1c(COc2cc(OCc3cncc(C#N)c3)c(CN[C@@H](CS(=O)(=O)O)C(=O)NCCS(=O)(=O)O)cc2Cl)cccc1-c1cccc(OCc2cn(CCCN3CCN(C(=O)[C@H](CS(=O)(=O)O)NC(=O)CC[C@H](C(=O)O)N4CCN(CC(=O)O)CCN(CC(=O)O)CC4)CC3)nn2)c1C.[64Cu+2] [[^64Cu]Cu-1] 1.1
